Test system: B. subtilis ATCC-6633
TEST SUMMARY: Antibacterial activity, MIC by double-microdilution
Assay type: cell-based
STUDY CONDITIONS: Bacillus subtilis, ATCC6633; Table 6; read-out: Antibacterial activity MIC B. subtilis ATCC6633
OBSERVATION TYPE: MIC (µg/mL)
Give bare numbers, in µg/mL.

In the examples that follow, each entry is paired with its recorded MIC.
COMPOUND	RESULT NUMBER
NC[C@H]1O[C@@H](OC2C(O)[C@H](N)CC(N)[C@H]2O[C@H]2OC(CO)[C@@H](O)C(O)C2N)C(O)C1O (some centres unmarked) [NB30, reference compound]	100
C[C@H](N)[C@H]1O[C@@H](OC2C(O)[C@H](N)CC(N)[C@H]2O[C@H]2OC(CO)[C@@H](O)C(O)C2N)C(O)C1O (some centres unmarked) [NB118, reference compound]	83
NC[C@H]1O[C@@H](O[C@@H]2C(O)[C@H](N)CC(N)[C@H]2O[C@H]2OC(CO)=CC(O)[C@@H]2N)C(O)[C@H]1O (some centres unmarked)	192

Continue with the next compound.
The recorded MIC for C[C@H](N)[C@H]1O[C@@H](O[C@@H]2C(O)[C@H](N)CC(N)[C@H]2O[C@H]2OC(CO)=CC(O)[C@@H]2N)C(O)[C@H]1O (some centres unmarked) is 192

* * *

Test system: E. coli R477-100
OBSERVATION TYPE: MIC

In the examples that follow, each entry is paired with its recorded MIC.
MOLECULE	MIC
N[C@H]1[C@@H](O[C@H]2[C@H](O)[C@@H](O)[C@H](N)C[C@@H]2N)O[C@H]([C@H](O)CO)[C@@H](O)[C@@H]1O [NB153]	> 311 µM
NC[C@H]1O[C@@H](O[C@@H]2[C@@H](O)[C@H](N)C[C@H](N)[C@H]2O[C@H]2O[C@H]([C@H](O)CO)[C@@H](O)[C@H](O)[C@H]2N)[C@@H](O)[C@H]1O [NB156]	> 273 µM
CN[C@@H]1[C@@H](O)[C@@H](O[C@@H]2[C@@H](O)[C@H](O[C@H]3O[C@H]([C@@H](C)O)[C@@H](O)[C@H](O)[C@H]3N)[C@@H](N)C[C@H]2N)OC[C@]1(C)O [Compound G418, geneticin, reference compound]	9 µM

Go through the list and state MIC for each entry.
1. N[C@H]1[C@@H](O[C@H]2[C@H](O)[C@@H](O)[C@H](N)C[C@@H]2N)OC(CO)=C[C@@H]1O [NB154]
2. C[C@H](N)[C@H]1O[C@@H](OC2C(O)[C@H](N)CC(N)[C@H]2O[C@H]2OC(CO)[C@@H](O)C(O)C2N)C(O)C1O (some centres unmarked) [NB118, reference compound]

Output:
1. > 384 µg/mL
2. 2660 µg/mL

Go through the list and state MIC for each entry.
1. N[C@H]1[C@@H](O[C@H]2[C@H](O)[C@@H](O)[C@H](N)C[C@@H]2N)O[C@H]([C@@H](O)CO)[C@@H](O)[C@@H]1O [NB155]
2. C[C@H](N)[C@H]1O[C@@H](O[C@@H]2[C@@H](O)[C@H](N)C[C@H](N)[C@H]2O[C@H]2O[C@H]([C@H](O)CO)[C@@H](O)[C@H](O)[C@H]2N)[C@@H](O)[C@H]1O [NB157]
3. NC[C@H]1O[C@@H](OC2C(O)[C@H](N)CC(N)[C@H]2O[C@H]2OC(CO)[C@@H](O)C(O)C2N)C(O)C1O (some centres unmarked) [NB30, reference compound]

Output:
1: > 375 µM; 2: > 257 µM; 3: 790 µg/mL
